- Assay Explanation: Solubility (JP1 at pH 1.2)
- Assay type: physicochemical
- Study Conditions: JP1, pH 1.2
Quantity: solubility

Solved cases (2 shown):
| Compound | solubility |
| --- | --- |
| CC(=O)O[C@@]12CO[C@@H]1C[C@H](O)[C@@]1(C)C(=O)[C@H](O)C3=C(C)[C@@H](OC(=O)[C@H](O)[C@@H](NC(=O)OC(C)(C)C)c4ccccc4)C[C@@](O)([C@@H](OC(=O)c4ccccc4)[C@H]21)C3(C)C.O.O.O [DOCETAXEL] | < 4 µg/mL |
| CC(=O)O[C@H]1C(=O)[C@@]2(C)[C@H]([C@H](OC(=O)c3ccccc3)[C@]3(O)C[C@H](OC(=O)[C@H](O)[C@@H](NC(=O)c4ccccc4)c4ccccc4)C(C)=C1C3(C)C)[C@]1(OC(C)=O)CO[C@@H]1C[C@@H]2O [PACLITAXEL] | < 4 µg/mL |

// query solubility value for entry "CC(=O)O[C@@]12CO[C@@H]1C[C@H](O)[C@@]1(C)[C@@H]3OC(C)(C)O[C@@H]3C3=C(C)[C@@H](OC(=O)[C@H](O)[C@@H](NC(=O)OC(C)(C)C)c4ccncc4)C[C@@](O)([C@@H](OC(=O)c4ccccc4)[C@H]21)C3(C)C"
333 µg/mL
